Biological target: human GABABR1aR2a (Homo sapiens, UniProt O75899+Q9UBS5)
Construct: expressed in transfected cells
Sequence (Q9UBS5 15-961 limits assumed): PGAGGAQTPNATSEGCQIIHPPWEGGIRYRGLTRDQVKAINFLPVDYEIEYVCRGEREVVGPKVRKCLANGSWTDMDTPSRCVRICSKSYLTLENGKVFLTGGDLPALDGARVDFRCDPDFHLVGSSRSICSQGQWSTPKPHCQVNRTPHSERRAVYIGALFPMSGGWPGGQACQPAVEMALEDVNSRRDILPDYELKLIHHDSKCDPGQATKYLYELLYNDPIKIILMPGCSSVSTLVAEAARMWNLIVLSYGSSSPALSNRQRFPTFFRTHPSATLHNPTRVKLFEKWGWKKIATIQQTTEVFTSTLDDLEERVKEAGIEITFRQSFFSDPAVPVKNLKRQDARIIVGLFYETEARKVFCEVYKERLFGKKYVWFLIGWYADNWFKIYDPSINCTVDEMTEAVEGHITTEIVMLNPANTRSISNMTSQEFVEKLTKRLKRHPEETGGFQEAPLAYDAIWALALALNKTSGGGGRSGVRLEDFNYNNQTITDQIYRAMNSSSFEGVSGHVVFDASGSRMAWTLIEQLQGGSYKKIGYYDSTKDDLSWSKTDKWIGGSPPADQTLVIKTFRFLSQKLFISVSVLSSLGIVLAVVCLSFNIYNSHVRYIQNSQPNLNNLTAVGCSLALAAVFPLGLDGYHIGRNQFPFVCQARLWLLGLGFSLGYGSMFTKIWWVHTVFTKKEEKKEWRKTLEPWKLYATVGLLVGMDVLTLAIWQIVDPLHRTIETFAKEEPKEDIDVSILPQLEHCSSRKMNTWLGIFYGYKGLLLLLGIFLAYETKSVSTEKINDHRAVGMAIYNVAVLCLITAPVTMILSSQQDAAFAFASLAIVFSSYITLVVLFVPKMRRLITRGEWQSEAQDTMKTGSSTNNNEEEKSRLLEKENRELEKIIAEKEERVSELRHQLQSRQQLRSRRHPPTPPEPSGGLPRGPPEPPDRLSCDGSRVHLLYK
Sequence (O75899 42-941): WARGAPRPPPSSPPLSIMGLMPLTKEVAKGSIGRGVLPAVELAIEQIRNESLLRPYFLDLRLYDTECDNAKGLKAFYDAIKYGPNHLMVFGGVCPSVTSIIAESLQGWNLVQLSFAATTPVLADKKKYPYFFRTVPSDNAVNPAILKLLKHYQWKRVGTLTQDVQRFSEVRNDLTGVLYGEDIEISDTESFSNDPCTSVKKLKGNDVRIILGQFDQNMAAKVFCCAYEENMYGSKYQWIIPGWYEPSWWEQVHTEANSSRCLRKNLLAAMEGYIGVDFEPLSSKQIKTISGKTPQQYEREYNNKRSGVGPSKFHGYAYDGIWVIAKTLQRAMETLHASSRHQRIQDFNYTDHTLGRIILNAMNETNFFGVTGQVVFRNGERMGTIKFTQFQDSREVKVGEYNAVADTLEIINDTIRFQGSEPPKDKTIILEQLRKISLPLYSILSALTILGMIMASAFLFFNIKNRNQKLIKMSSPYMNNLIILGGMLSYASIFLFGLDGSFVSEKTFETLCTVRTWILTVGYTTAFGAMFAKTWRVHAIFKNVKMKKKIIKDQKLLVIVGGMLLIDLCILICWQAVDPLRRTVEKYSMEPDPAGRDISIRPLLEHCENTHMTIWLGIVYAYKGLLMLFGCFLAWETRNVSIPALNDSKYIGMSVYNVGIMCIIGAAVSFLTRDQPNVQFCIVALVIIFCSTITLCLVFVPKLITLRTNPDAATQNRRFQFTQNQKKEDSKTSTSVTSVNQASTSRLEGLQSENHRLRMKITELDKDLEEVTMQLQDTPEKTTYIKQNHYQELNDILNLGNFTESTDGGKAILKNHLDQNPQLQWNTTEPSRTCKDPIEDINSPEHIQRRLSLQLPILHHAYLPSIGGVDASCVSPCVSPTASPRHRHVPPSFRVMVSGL
Assay: Intracellular Ca2+ mobilization assay (FLIPR), enhancer concentration-response in presence of 10 nM GABA
Type: cell-based
Conditions: CHO-GABABR1aR2a-Gα16 cell; enhancer 0.001-30 μM in presence of 10 nM GABA (EC10); read-out: Emax (%) at 10 nM GABA alone = 0% 10 μM GABA alone = 100%
Task for the reader: assign each of the following compounds its reported Emax.
Numbers only, in %.

Please review the entries below; each comes with its answer.
| COMPOUND | RECORDED_RESULT |
| --- | --- |
| Cc1nc2ccc(I)cc2c(N2CCOCC2)c1S(C)(=O)=O [Example 5] | 30 |
| Cc1nc2ccc(OC(F)(F)F)cc2c(-c2ccccc2)c1S(C)(=O)=O [Example 1] | 56 |

Each compound below has a reported value. Please supply its Emax.
1. Cc1nc2ccc(I)cc2c(N2CCCCC2)c1S(C)(=O)=O [Example 9]
2. Cc1nc2ccc(I)cc2c(N2CCC[C@@H](O)C2)c1S(C)(=O)=O [Example 11]
3. Cc1nc2ccc(Br)cc2c(-c2ccc(F)cc2)c1S(C)(=O)=O [Example 14]

(A)
48
26
37

----------
Task for the reader: assign each of the following compounds its reported EC50.
Biological target: human GABABR1aR2a (Homo sapiens, UniProt O75899+Q9UBS5)
Construct: expressed in transfected cells
Test: Intracellular Ca2+ mobilization assay (FLIPR), enhancer concentration-response in presence of 10 nM GABA
Type: cell-based
Conditions: CHO-GABABR1aR2a-Gα16 cell; in presence of 10 nM GABA (EC10)
Give bare numbers, in µM.

Please review the entries below; each comes with its answer.
| SMILES_RECORD | TARGET_UNDER_TEST | RECORDED_RESULT |
| --- | --- | --- |
| Cc1nc2ccc(Br)cc2c(-c2ccc(F)cc2)c1S(C)(=O)=O | human GABABR1aR2a (Homo sapiens, UniProt O75899+Q9UBS5) | 2.1 |
| Cc1nc2ccc(I)cc2c(N2CCCCC2)c1S(C)(=O)=O | human GABABR1aR2a (Homo sapiens, UniProt O75899+Q9UBS5) | 0.6 |
| Cc1nc2ccc(OC(F)(F)F)cc2c(-c2ccccc2)c1S(C)(=O)=O | human GABABR1aR2a (Homo sapiens, UniProt O75899+Q9UBS5) | 0.85 |
| Cc1nc2ccc(I)cc2c(N2CCC[C@@H](O)C2)c1S(C)(=O)=O | human GABABR1aR2a (Homo sapiens, UniProt O75899+Q9UBS5) | 0.8 |

Continue with the compound presented below.
(Q) Please indicate EC50 recorded for Cc1nc2ccc(I)cc2c(N2CCOCC2)c1S(C)(=O)=O
(A) 2.1

----------
Molecular target: human GABABR1aR2a (Homo sapiens, UniProt O75899+Q9UBS5)
Construct: expressed in transfected cells
Experiment: GABA shift assay (Ca2+ mobilization, GABA curves with and without 10 μM enhancer)
Format: cell-based
Conditions: CHO-GABABR1aR2a-Gα16 cell
GABA shift Log [EC50(GABA + 10 μM cp)/EC50(GABA alone)] strictly under -0.8 means satisfied; at -0.8 or over means not satisfied.

Use the examples below as a reference point.
| SMILES_RECORD | LABEL |
| --- | --- |
| Cc1nc2ccc(I)cc2c(N2CCCCC2)c1S(C)(=O)=O | satisfied |
| Cc1nc2ccc(OC(F)(F)F)cc2c(-c2ccccc2)c1S(C)(=O)=O | not satisfied |
| Cc1nc2ccc(I)cc2c(N2CCOCC2)c1S(C)(=O)=O | not satisfied |

--- query ---
(Q) For this compound, is GABA shift Log [EC50(GABA + 10 μM cp)/EC50(GABA alone)] lower than -0.8? Cc1nc2ccc(Br)cc2c(-c2ccc(F)cc2)c1S(C)(=O)=O
(A) not satisfied
